These measurements were taken from paper PMC7506137.

assay: Plasma exposure (dried blood spot) after single oral dose; type: in vivo; conditions: male, Sprague Dawley, rat, whole blood (dried blood spot), po, 3 mg/kg, oral 3 mg/kg, 2 h, dried blood spot, read-out: Concentration, Mean
outcome_measure: concentration at 2 h (µM)
I only need the number, in µM, no unit after it.

Entry under review: "O=c1c2nnc(C3(C4CC4)CC3)n2c2c(n1CC1CC1)CCCC2" . Reported concentration at 2 h?
3.69

----------
experiment: Plasma exposure (dried blood spot) after single oral dose; type: in vivo; conditions: male, Sprague Dawley, rat, whole blood (dried blood spot), po, 3 mg/kg, oral 3 mg/kg, 5 h, dried blood spot, read-out: Concentration, Mean
outcome_measure: concentration at 5 h (nM)
I only need the number, in nM, no unit after it.

Entry under review: O=c1c2nnc(C3(C4CC4)CC3)n2c2c(n1CC1CC1)CCCC2 [BTTQ] . Reported concentration at 5 h?
2170

----------
assay: Plasma exposure (dried blood spot) after single oral dose; type: in vivo; settings: male, Sprague Dawley, rat, whole blood (dried blood spot), po, 0.1 mg/kg, oral 0.1 mg/kg, 24 h, FU 0.053, read-out: Unbound Concentration, individual animals
outcome_measure: concentration at 24 h (nM)
I only need the number, in nM, no unit after it.

Entry under review: O=c1c2nnc(C3(C4CC4)CC3)n2c2c(n1CC1CC1)CCCC2 [BTTQ] . Reported concentration at 24 h?
2.31

----------
test: Plasma exposure (dried blood spot) after single oral dose; assay type: in vivo; conditions: male, Sprague Dawley, rat, whole blood (dried blood spot), po, 1 mg/kg, oral 1 mg/kg, 3 h, dried blood spot, read-out: Concentration, individual animals
outcome_measure: concentration at 3 h (nM)
I only need the number, in nM, no unit after it.

Entry under review: "O=c1c2nnc(C3(C4CC4)CC3)n2c2c(n1CC1CC1)CCCC2" . Reported concentration at 3 h?
1210

----------
assay: Plasma exposure (dried blood spot) after single oral dose; assay type: in vivo; conditions: male, Sprague Dawley, rat, whole blood (dried blood spot), po, 3 mg/kg, oral 3 mg/kg, 6 h, FU 0.053, read-out: Unbound Concentration, Mean
outcome_measure: concentration at 6 h (nM)
I only need the number, in nM, no unit after it.

Entry under review: "O=c1c2nnc(C3(C4CC4)CC3)n2c2c(n1CC1CC1)CCCC2" . Reported concentration at 6 h?
93.5

----------
test: Plasma exposure (dried blood spot) after single oral dose; assay type: in vivo; settings: male, Sprague Dawley, rat, whole blood (dried blood spot), po, 0.3 mg/kg, oral 0.3 mg/kg, 6 h, FU 0.053, read-out: Unbound Concentration, Mean
outcome_measure: concentration at 6 h (nM)
I only need the number, in nM, no unit after it.

Entry under review: "O=c1c2nnc(C3(C4CC4)CC3)n2c2c(n1CC1CC1)CCCC2" . Reported concentration at 6 h?
6.73

----------
Assay: Plasma exposure (dried blood spot) after single oral dose
Format: in vivo
Settings: male, Sprague Dawley, rat, whole blood (dried blood spot), po, 0.1 mg/kg, oral 0.1 mg/kg, 3 h, FU 0.053, read-out: Unbound Concentration, Mean
Description: Male Sprague Dawley rats at 6 to 7 weeks were dosed orally by p.o. gavage with different doses of BTTQ formulated in 1% hydroxyethlycellulose (Dow Corning, Midland, MI, United States) (w/v), 0.25% polysorbate 80 (Sigma-Aldrich, St. Louis, MO, United States) (v/v), and 0.05% antifoam (v/v; Dow Corning, Midland, MI, United States) in purified water. […]
outcome_measure: concentration at 3 h (nM)
I only need the number, in nM, no unit after it.

Entry under review: "O=c1c2nnc(C3(C4CC4)CC3)n2c2c(n1CC1CC1)CCCC2" . Reported concentration at 3 h?
8.98

----------
Assay: Plasma exposure (dried blood spot) after single oral dose
Type: in vivo
Details: male, Sprague Dawley, rat, whole blood (dried blood spot), po, 1 mg/kg, oral 1 mg/kg, 6 h, FU 0.053, read-out: Unbound Concentration, individual animals
Description: Male Sprague Dawley rats at 6 to 7 weeks were dosed orally by p.o. gavage with different doses of BTTQ formulated in 1% hydroxyethlycellulose (Dow Corning, Midland, MI, United States) (w/v), 0.25% polysorbate 80 (Sigma-Aldrich, St. Louis, MO, United States) (v/v), and 0.05% antifoam (v/v; Dow Corning, Midland, MI, United States) in purified water. […]
outcome_measure: concentration at 6 h (nM)
I only need the number, in nM, no unit after it.

Entry under review: "O=c1c2nnc(C3(C4CC4)CC3)n2c2c(n1CC1CC1)CCCC2" . Reported concentration at 6 h?
41.3

----------
assay: Plasma exposure (dried blood spot) after single oral dose; assay type: in vivo; details: male, Sprague Dawley, rat, whole blood (dried blood spot), po, 0.3 mg/kg, oral 0.3 mg/kg, 4 h, FU 0.053, read-out: Unbound Concentration, Mean
outcome_measure: concentration at 4 h (nM)
I only need the number, in nM, no unit after it.

Entry under review: "O=c1c2nnc(C3(C4CC4)CC3)n2c2c(n1CC1CC1)CCCC2" . Reported concentration at 4 h?
11.8

----------
experiment: Plasma exposure (dried blood spot) after single oral dose; assay type: in vivo; conditions: male, Sprague Dawley, rat, whole blood (dried blood spot), po, 0.03 mg/kg, oral 0.03 mg/kg, 3 h, dried blood spot, read-out: Concentration, individual animals
outcome_measure: concentration at 3 h (nM)
I only need the number, in nM, no unit after it.

Entry under review: O=c1c2nnc(C3(C4CC4)CC3)n2c2c(n1CC1CC1)CCCC2 [BTTQ] . Reported concentration at 3 h?
38.4

----------
assay: Plasma exposure (dried blood spot) after single oral dose; assay type: in vivo; conditions: male, Sprague Dawley, rat, whole blood (dried blood spot), po, 0.3 mg/kg, oral 0.3 mg/kg, 6 h, dried blood spot, read-out: Concentration, Mean
outcome_measure: concentration at 6 h (nM)
I only need the number, in nM, no unit after it.

Entry under review: O=c1c2nnc(C3(C4CC4)CC3)n2c2c(n1CC1CC1)CCCC2 [BTTQ] . Reported concentration at 6 h?
127

----------
assay: Plasma exposure (dried blood spot) after single oral dose; type: in vivo; settings: male, Sprague Dawley, rat, whole blood (dried blood spot), po, 0.1 mg/kg, oral 0.1 mg/kg, 2 h, FU 0.053, read-out: Unbound Concentration, individual animals
outcome_measure: concentration at 2 h (nM)
I only need the number, in nM, no unit after it.

Entry under review: "O=c1c2nnc(C3(C4CC4)CC3)n2c2c(n1CC1CC1)CCCC2" . Reported concentration at 2 h?
11.7

----------
assay: Plasma exposure (dried blood spot) after single oral dose; type: in vivo; conditions: male, Sprague Dawley, rat, whole blood (dried blood spot), po, 1 mg/kg, oral 1 mg/kg, 1 h, FU 0.053, read-out: Unbound Concentration, Mean
outcome_measure: concentration at 1 h (nM)
I only need the number, in nM, no unit after it.

Entry under review: O=c1c2nnc(C3(C4CC4)CC3)n2c2c(n1CC1CC1)CCCC2 [BTTQ] . Reported concentration at 1 h?
92.5
